Items are presented alongside their recorded pKi.
Molecular target: CRF1 receptors (Homo sapiens, UniProt P34998)
Construct: endogenous in cells; host or cells: IMR-32 cells, transformed with 2.5 µM 5'-bromo-2'-deoxyuridine for 10 days; membrane preparation
Sequence (P34998 24-415): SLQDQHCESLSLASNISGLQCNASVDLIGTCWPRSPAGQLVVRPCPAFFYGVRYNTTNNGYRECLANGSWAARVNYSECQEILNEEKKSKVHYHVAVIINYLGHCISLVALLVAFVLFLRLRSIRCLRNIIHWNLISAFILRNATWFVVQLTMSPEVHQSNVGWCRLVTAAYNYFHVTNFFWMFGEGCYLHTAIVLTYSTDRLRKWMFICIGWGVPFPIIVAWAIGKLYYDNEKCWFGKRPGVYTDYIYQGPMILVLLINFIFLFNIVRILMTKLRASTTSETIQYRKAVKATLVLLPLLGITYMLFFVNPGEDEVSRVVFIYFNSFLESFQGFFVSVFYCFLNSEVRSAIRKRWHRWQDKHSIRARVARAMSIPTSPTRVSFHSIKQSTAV
Test: CRF1 receptor radioligand binding assay ([125I]-oCRF competition, IMR-32 cell membranes)
Conditions: IMR-32 cell membranes, [125I]-oCRF 100 pM; read-out: Ki (CRF-1R)
pKi: −log10 of the molar value.
measurement.kind: pKi

{"mol": "CCC(CC)NCc1c(C)nc2n(-c3c(C)cc(C)cc3Cl)c3ncccc3n12", "reported": "> 5.00"}
{"mol": "Cc1cc(C)c(-n2c3ncccc3n3c(CN(CCC4CC4)CCC(F)(F)F)c(C(F)(F)F)nc23)c(C)c1", "reported": "> 6.00"}
{"mol": "CCN(CCC1CC1)Cc1c(C(F)(F)F)nc2n1CCCN2c1c(C)cc(C)cc1Cl", "reported": "> 6.00"}
{"mol": "CCCCN(C)Cc1c(C(F)(F)F)nc2n1CCCN2c1c(C)cc(C)cc1C", "reported": "> 6.00"}
{"mol": "CCN(Cc1c(C(F)(F)F)nc2n1CCCN2c1c(C)cc(C)cc1Cl)CC1CC1", "reported": "> 7.00"}
{"mol": "CCCN(CCc1ccccc1)Cc1c(C(F)(F)F)nc2n(-c3c(C)cc(C)cc3C)c3ccccc3n12", "reported": "> 6.00"}
{"mol": "Cc1cc(C)c(N2CCCn3c2nc(C(F)(F)F)c3CN(CCC(F)(F)F)Cc2cccc(F)c2)c(Cl)c1", "reported": "> 6.00"}
{"mol": "CCCN(Cc1cccc(F)c1)C(=O)c1c(CC)nc2n1CCN2c1c(C)cc(C)cc1C", "reported": "> 5.00"}
